tested on: MCF7; assay: Cytotoxicity against human MCF7 cells after 48 hrs by WST-1 assay; type: functional, cell-based; conditions: MCF7, 48 h
pIC50: −log10 of the molar value.
Please go through the items and note down their pIC50.

Examples with answers:
smiles	pIC50
C/C=C(/C)C(=O)O[C@@H]1C[C@H]2C(=C1C)[C@@H]1OC(=O)[C@@](C)(O)[C@@]1(O)[C@@H](OC(=O)CCOCCOCCOCCOCCn1cc(COCCOCCOCCOCCNC(=O)CCOCCOCCOCCOCCn3cc(COc4ccc(C5=C6C=CC=[N+]6[B-](F)(F)n6cccc65)cc4)nn3)nn1)C[C@]2(C)OC(C)=O	< 4.30
C/C=C(/C)C(=O)O[C@@H]1C[C@H]2C(=C1C)[C@@H]1OC(=O)[C@@](C)(O)[C@@]1(O)[C@@H](OC(=O)Cn1cc(COc3ccc(C4=C5C=CC=[N+]5[B-](F)(F)n5cccc54)cc3)nn1)C[C@]2(C)OC(C)=O	< 4.30

Tell me its pIC50 given "F[B-]1(F)n2cccc2C=C2C=CC=[N+]21" as the entry.
< 4.30
